Tested on: Staphylococcus warneri (CHUG-Swar1)
ASSAY NOTES: Other MIC determination, microdilution method (CLSI M07-A9) with modifications
Format: cell-based
MEASUREMENT SETUP: 10^6 CFU/ml, 18h at 37 °C
Some compounds, each annotated with its measured MIC.
READOUT: MIC (µg/mL)

>  <TEST SMILES>
CC(=O)c1c(C)[nH]c(C(c2[nH]c(C)c(C(C)=O)c2C)c2csc3ccc(Br)cc23)c1C

>  <VALUE REPORTED>
0.25

$$$$
>  <TEST SMILES>
CC(=O)c1c(C)[nH]c(C(c2cc3ccccc3o2)c2[nH]c(C)c(C(C)=O)c2C)c1C

>  <VALUE REPORTED>
8

$$$$
>  <TEST SMILES>
CC(=O)c1c(C)[nH]c(C(c2[nH]c(C)c(C(C)=O)c2C)c2cccc3ccccc23)c1C

>  <VALUE REPORTED>
2

$$$$
>  <TEST SMILES>
COC(=O)c1cccc(C(c2[nH]c(C)c(C(C)=O)c2C)c2[nH]c(C)c(C(C)=O)c2C)c1

>  <VALUE REPORTED>
16

$$$$

====

Tested on: Pseudomonas aeruginosa CIP 5933
ASSAY NOTES: MIC determination, microdilution method (CLSI M07-A8)
Type: cell-based
MEASUREMENT SETUP: CIP5933; Pseudomonas aeruginosa CIP 5933; 18 hours incubation; read-out: MIC
READOUT: MIC

>  <TEST SMILES>
CC(=O)c1c(C)[nH]c(C(c2ccc([N+](=O)[O-])cc2)c2[nH]c(C)c(C(C)=O)c2C)c1C

>  <READOUT>
MIC

>  <VALUE REPORTED>
> 128 µg/mL

$$$$
>  <TEST SMILES>
CC(=O)c1c(C)[nH]c(C(c2[nH]c(C)c(C(C)=O)c2C)c2cccc3ccccc23)c1C

>  <READOUT>
MIC

>  <VALUE REPORTED>
> 128 µg/mL

$$$$
>  <TEST SMILES>
CC(=O)c1c(C)[nH]c(C(c2ccccc2I)c2[nH]c(C)c(C(C)=O)c2C)c1C

>  <READOUT>
MIC

>  <VALUE REPORTED>
> 32 µg/mL

$$$$
>  <TEST SMILES>
COC(=O)c1cccc(C(c2[nH]c(C)c(C(C)=O)c2C)c2[nH]c(C)c(C(C)=O)c2C)c1

>  <READOUT>
MIC

>  <VALUE REPORTED>
> 32 µg/mL

$$$$
>  <TEST SMILES>
CC(=O)c1c(C)[nH]c(C(c2[nH]c(C)c(C(C)=O)c2C)c2csc3ccccc23)c1C

>  <READOUT>
MIC

>  <VALUE REPORTED>
> 128 µg/mL

$$$$
>  <TEST SMILES>
CC(=O)c1c(C)[nH]c(C(c2cc3ccccc3s2)c2[nH]c(C)c(C(C)=O)c2C)c1C

>  <READOUT>
MIC

>  <VALUE REPORTED>
> 128 µg/mL

$$$$
>  <TEST SMILES>
CC(=O)c1c(C)[nH]c(C(c2cc3ccccc3o2)c2[nH]c(C)c(C(C)=O)c2C)c1C

>  <READOUT>
MIC

>  <VALUE REPORTED>
> 128 µg/mL

$$$$
>  <TEST SMILES>
CC(=O)c1c(C)[nH]c(C(c2cccs2)c2[nH]c(C)c(C(C)=O)c2C)c1C

>  <READOUT>
MIC

>  <VALUE REPORTED>
> 32 µg/mL

$$$$
>  <TEST SMILES>
CC(=O)c1c(C)[nH]c(C(c2ccc(Cl)cc2)c2[nH]c(C)c(C(C)=O)c2C)c1C

>  <READOUT>
MIC

>  <VALUE REPORTED>
> 128 µg/mL

$$$$
>  <TEST SMILES>
CC(=O)c1c(C)[nH]c(C(c2ccccc2)c2[nH]c(C)c(C(C)=O)c2C)c1C

>  <READOUT>
MIC

>  <VALUE REPORTED>
> 128 µg/mL

$$$$
>  <TEST SMILES>
CC(=O)c1c(C)[nH]c(C(c2ccc(F)cc2)c2[nH]c(C)c(C(C)=O)c2C)c1C

>  <READOUT>
MIC

>  <VALUE REPORTED>
> 32 µg/mL

$$$$
>  <TEST SMILES>
CCC(c1[nH]c(C)c(C(C)=O)c1C)c1[nH]c(C)c(C(C)=O)c1C

>  <READOUT>
MIC

>  <VALUE REPORTED>
> 128 µg/mL

$$$$

====

Some compounds, each annotated with its measured MIC.
Test system: Staphylococcus warneri (CHUG-Swar1)

>  <TEST SMILES>
CC(=O)c1c(C)[nH]c(C(c2cc3ccccc3s2)c2[nH]c(C)c(C(C)=O)c2C)c1C

>  <TARGET OR SYSTEM>
Staphylococcus warneri (CHUG-Swar1)

>  <MIC (µg/mL)>
4

$$$$
>  <TEST SMILES>
CC(=O)c1c(C)[nH]c(C(c2ccc(F)cc2)c2[nH]c(C)c(C(C)=O)c2C)c1C

>  <TARGET OR SYSTEM>
Staphylococcus warneri (CHUG-Swar1)

>  <MIC (µg/mL)>
8

$$$$
>  <TEST SMILES>
CC(=O)c1c(C)[nH]c(C(c2ccc(Cl)cc2)c2[nH]c(C)c(C(C)=O)c2C)c1C

>  <TARGET OR SYSTEM>
Staphylococcus warneri (CHUG-Swar1)

>  <MIC (µg/mL)>
8

$$$$
>  <TEST SMILES>
CC(=O)c1c(C)[nH]c(C(c2[nH]c(C)c(C(C)=O)c2C)c2csc3ccccc23)c1C

>  <TARGET OR SYSTEM>
Staphylococcus warneri (CHUG-Swar1)

>  <MIC (µg/mL)>
1

$$$$

====

Tested on: Staphylococcus aureus ATCC 6538
Note to self: use Met only for MIC readings below 2 µg/mL; a reading exactly at 2 µg/mL still gets Not met.

>  <TEST SMILES>
CC(=O)c1c(C)[nH]c(C(c2ccccc2)c2[nH]c(C)c(C(C)=O)c2C)c1C

>  <TARGET OR SYSTEM>
Staphylococcus aureus ATCC 6538

>  <GROUP>
Not met

$$$$
>  <TEST SMILES>
CC(=O)c1c(C)[nH]c(C(c2[nH]c(C)c(C(C)=O)c2C)c2csc3ccccc23)c1C

>  <TARGET OR SYSTEM>
Staphylococcus aureus ATCC 6538

>  <GROUP>
Met

$$$$
>  <TEST SMILES>
CC(=O)c1c(C)[nH]c(C(c2[nH]c(C)c(C(C)=O)c2C)c2cccc3ccccc23)c1C

>  <TARGET OR SYSTEM>
Staphylococcus aureus ATCC 6538

>  <GROUP>
Met

$$$$
>  <TEST SMILES>
CCC(c1[nH]c(C)c(C(C)=O)c1C)c1[nH]c(C)c(C(C)=O)c1C

>  <TARGET OR SYSTEM>
Staphylococcus aureus ATCC 6538

>  <GROUP>
Not met

$$$$
>  <TEST SMILES>
CC(=O)c1c(C)[nH]c(C(c2ccc([N+](=O)[O-])cc2)c2[nH]c(C)c(C(C)=O)c2C)c1C

>  <TARGET OR SYSTEM>
Staphylococcus aureus ATCC 6538

>  <GROUP>
Not met

$$$$
>  <TEST SMILES>
CC(=O)c1c(C)[nH]c(C(c2cc3ccccc3o2)c2[nH]c(C)c(C(C)=O)c2C)c1C

>  <TARGET OR SYSTEM>
Staphylococcus aureus ATCC 6538

>  <GROUP>
Not met

$$$$
